system: HOP-92; experiment: NCI tumour cell line growth inhibition, 48 h
Active and inactive are the calls of the source. Cut-off read from the data, not from the text of the source: active = GI50 up to about 1.1 µM and inactive = higher.
Form field: GI50 (one value per entry).

Worked cases, answers included:
COC(=O)/C(=N/NC(N)=O)C(C(=O)C(=O)Nc1ccc(C)cc1)c1nc2ccc(C(=O)c3ccccc3)cc2nc1O (stereo not given) : 30.3 µM (inactive)
NNC(=O)CC(=O)Nc1ccccc1F : > 100 µM (inactive)

Quick note, GI50 for CCOC(=O)C12CCCC1(O)N(NC(N)=O)C(C)=C2C(=O)OC (stereo not given) landed at > 100 µM (inactive)

Record Cc1c(CCN2CCOCC2)c(N2CCOCC2)n2c(nc3ccccc32)c1C#N . Reported GI50: > 10 µM (inactive)

For this compound ( OC(C1CO1)C(O)C1CO1 (stereo not given) ), measured GI50 is > 75.5 µM (inactive)

###

tested on: DMS-114; assay: NCI tumour cell line growth inhibition, 48 h
Active and inactive are the calls of the source. Rule as the data show it: active = GI50 up to about 1.1 µM and inactive = higher.
test readout: GI50

Consider the reported GI50 for these compounds:
Cc1ccc(/N=N/C(C(=O)c2ccccc2)C(=O)c2ccccc2)cc1 : 20.1 µM (inactive)
COc1ccc(C(=O)C(c2ccc(OCc3ccccc3)cc2)c2ccc(OCc3ccccc3)cc2)cc1 : > 100 µM (inactive)
C[N+](C)(C)CCc1ccccc1 : > 100 µM (inactive)

Shift focus to the following entry.
Record Nc1ccc2nc(Nc3ccc(F)cc3)cnc2c1 , field GI50: 34.4 µM (inactive)

###

tested on: RXF 393; test: NCI tumour cell line growth inhibition, 48 h
Active and inactive are the calls of the source. Cut-off read from the data, not from the text of the source: active = GI50 up to about 1.1 µM and inactive = higher.
test readout: GI50

Record excerpt, results attached:
O=C(CC(=O)n1nc(-c2ccccc2)c(/N=N/c2ccc([N+](=O)[O-])cc2)c1-c1ccccc1)Nc1ccc(Cl)cc1 : 19.5 µM (inactive)
C[n+]1c2ccccc2n2c3ccccc3c(NCCCN3CCOCC3)c(C#N)c21 : 1.37 µM (inactive)
Cc1cc(C)c(-n2c(-c3ccccc3)cs/c2=N\N=C2C=C(C(C)(C)C)C(=O)C(C(C)(C)C)=C2)c(C)c1 : > 100 µM (inactive)
CC(C)(C)OC(=O)c1ccc(NCc2cc(O)ccc2O)cc1 : 1.36 µM (inactive)
CCOC(=O)C(C(O)c1ccc([N+](=O)[O-])cc1)P(=O)(OCC)OCC (configuration not stated) : 36.5 µM (inactive)

Item: COC(=O)C(F)C(Br)C(=O)OC (configuration not stated) | GI50: 2.18 µM (inactive)

Kindly note the recorded GI50 for Cn1c2ccccc2c2cc(N3CCCC3)c3c(c21)C(=O)N(c1ccccc1)C3=O , which is 32.5 µM (inactive)

###

test system: K562; assay: NCI tumour cell line growth inhibition, 48 h
Calls of active or inactive are those of the source. No stated cut-off is given here; in the data, active = GI50 up to about 1.1 µM and inactive = higher.
test readout: GI50

Per the record, CCOC(=O)C#Cc1ccc(C#CC(=O)OCC)cc1 has GI50 of 2 µM (inactive)

Reported GI50 for N#Cc1ccccc1NC(=O)/C(=N\Nc1ccc([N+](=O)[O-])cc1)C1C(=O)NC(=O)NC1=O was > 100 µM (inactive)

Record summary for CN(C)C=C1C(=O)N(C)C(=O)N(C)C1=O : reported GI50 = > 100 µM (inactive)

GI50 in this record for COC(=O)NCCc1n[nH]c2c1C(=O)C=C(Nc1ccccc1)C2=O : 28.2 µM (inactive)

So for CC(C)NC(=O)OCc1c(COC(=O)NC(C)C)c(-c2ccc[n+](COC(=O)C3CCCCC3)c2)n2c1CCC2 , the logged GI50 turned out to be > 100 µM (inactive)
